Molecular target: Zinc finger protein mex-5 (Caenorhabditis elegans, UniProt Q9XUB2)
Sequence (Q9XUB2 whole entry): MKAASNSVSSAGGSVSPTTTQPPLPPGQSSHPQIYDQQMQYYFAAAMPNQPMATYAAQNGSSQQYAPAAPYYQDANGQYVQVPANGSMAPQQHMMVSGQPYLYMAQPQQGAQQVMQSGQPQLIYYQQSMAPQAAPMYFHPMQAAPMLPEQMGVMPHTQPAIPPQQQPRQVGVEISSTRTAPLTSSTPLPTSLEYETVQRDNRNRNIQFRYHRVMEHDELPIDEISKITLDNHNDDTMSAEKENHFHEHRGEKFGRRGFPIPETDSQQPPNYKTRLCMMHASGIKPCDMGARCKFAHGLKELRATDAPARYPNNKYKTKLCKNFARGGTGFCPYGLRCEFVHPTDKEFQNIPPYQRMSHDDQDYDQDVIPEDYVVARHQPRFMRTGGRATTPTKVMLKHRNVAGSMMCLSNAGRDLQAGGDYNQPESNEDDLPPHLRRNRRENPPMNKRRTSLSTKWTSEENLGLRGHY
Assay: MEX-5/TCR-2 RNA interaction inhibitors, dose response, biochemical, C. elegans, fluorescence polarization (AID 1960)
parameter: pEC50
Please keep in mind that pEC50 is minus log10 of the molar concentration; only the number is needed.

INSERT INTO measurements (compound, parameter, data_value) VALUES
  ('C=c1c(C(=O)OC)c(O)c(=Cc2ccco2)n1-c1ccccc1 [MLS000780287]', 'pEC50', 5.30),
  ('O=C1NC(=O)N(CCc2ccccc2)C(=O)C1=CNNC(=O)c1ccccc1 [SMR000433912]', 'pEC50', 3.82);

--- query ---
compound CS(=O)(=O)Nc1nc2n(n1)C(c1ccccc1)CC(c1ccc(Br)cc1)=N2 (stereo not given) , pEC50 observed: 5.19

Just for reference, BindingDB's records for doi:10.7270/Q2D798VP is where these values come from.
